Test system: SK-Mel-5
METHOD: IC50 studies, monolayer cell culture assay (CellTiter-Glo cell viability, 72 hours)
Type: cell-based
PROTOCOL_CONDITIONS: Homo sapiens, SK-Mel-5, skin, Test III, read-out: IC50 Test (III) Avg
Experimental: Cancer cell lines listed in Table 1, were subjected for testing anti-cancer potency or the half maximal inhibitory concentration (IC50) of tamibarotene molecular complexes. […] Then 90 μl of the 100 μl testing reagent were transferred into an opaque-walled 96-well plate for the CTG luminescence reading on a plate reader (SynergyH4 Hybrid Reader, Biotek, USA). The luminescence intensity of each treatment was positively correlated with the number of cells survived during the treatments. […]
RECORDED_METRIC: IC50

COMPOUND	TGT	RESULT
CC1(C)CCC(C)(C)c2cc(NC(=O)c3ccc(C(=O)O)cc3)ccc21 [TAM, reference compound]	SK-Mel-5	> 100 µM
